Data provenance: patent US20230303690A1

# assayed.system: human LAG3 expressed on cells (human) (UniProt P18627)
# Sequence (P18627 23-525): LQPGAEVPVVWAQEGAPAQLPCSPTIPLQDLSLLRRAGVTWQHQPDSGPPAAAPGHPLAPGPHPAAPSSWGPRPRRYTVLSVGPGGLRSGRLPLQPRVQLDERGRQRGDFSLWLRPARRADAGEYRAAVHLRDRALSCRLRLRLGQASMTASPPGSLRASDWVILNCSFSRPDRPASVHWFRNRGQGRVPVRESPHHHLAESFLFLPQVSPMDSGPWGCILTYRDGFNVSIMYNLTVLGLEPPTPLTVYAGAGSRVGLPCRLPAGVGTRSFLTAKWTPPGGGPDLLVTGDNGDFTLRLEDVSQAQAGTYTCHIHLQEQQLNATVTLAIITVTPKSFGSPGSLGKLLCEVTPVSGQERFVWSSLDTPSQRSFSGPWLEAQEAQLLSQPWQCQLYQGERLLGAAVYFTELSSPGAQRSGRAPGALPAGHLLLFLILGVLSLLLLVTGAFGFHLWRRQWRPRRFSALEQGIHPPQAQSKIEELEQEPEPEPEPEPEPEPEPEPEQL
# assay.method.text: cell-based or functional assay

{"binder": "sdAb fusion 25-17-3 (Fc fusion, not shown: a dimerising Fc or GST) QLQLVESGGGLVQAGGSLRLSCAASGSIESFSFMGWYRQAPGKQRELVAGFTGAASLSFSTYTDAVKGRFTISRDNAKNTVYLQMNSLKPEDTAVYFCNVDPWSQSWPGRYWGQGTQVTVSSGGGGSGGGGSGGGGSQLQLVESGGGLVQPGGSLRLSCAASGLTLDGYAIGWFRQAPGKEREGLACISGSDGSTHYLDSVKGRFTISRDNGKNTMALQMNSLQFGDTAIYYCAARRGSCSGSWTYWGQGTQVTVSSEPKSCDKTHTCPPCPAPELLG", "Efficacy (Normalized to BMS) (%)": 102}
